# tested-target: PPARαΔAB (Mus musculus, UniProt P23204)
# Sequence (P23204 101-468 limits assumed, stated change not applied): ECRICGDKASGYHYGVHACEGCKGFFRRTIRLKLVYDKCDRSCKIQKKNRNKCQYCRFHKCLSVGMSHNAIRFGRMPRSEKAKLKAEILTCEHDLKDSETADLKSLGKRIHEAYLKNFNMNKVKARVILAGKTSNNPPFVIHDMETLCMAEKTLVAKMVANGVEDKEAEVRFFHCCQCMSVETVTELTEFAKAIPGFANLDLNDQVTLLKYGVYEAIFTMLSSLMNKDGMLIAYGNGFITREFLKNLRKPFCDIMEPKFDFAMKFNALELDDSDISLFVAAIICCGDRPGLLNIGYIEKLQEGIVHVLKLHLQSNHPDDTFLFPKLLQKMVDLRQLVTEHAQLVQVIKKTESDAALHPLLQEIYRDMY
# Format: binding, murine
Where a name gives a salt, the structure may show the parent alone.
outcome-measure: Kd (nM)

molecule="O=C1NS(=O)(=O)c2ccccc21 [Saccharin]" unit_of_measurement=nM reported_result=22.5
molecule="CCCC1O[C@@H]2C[C@H]3[C@@H]4CCC5=CC(=O)C=C[C@]5(C)[C@H]4[C@@H](O)C[C@]3(C)[C@]2(C(=O)CO)O1 (stereo partly drawn) [Budesonide]" unit_of_measurement=nM reported_result=26.3
molecule="CC(=O)O[C@@H]1C[C@H]2C(C)(C)C(=O)C=C[C@]2(C)[C@H]2CC[C@@]3(C)[C@H](c4ccoc4)OC(=O)[C@H]4O[C@]43[C@@]21C [Gedunin]" unit_of_measurement=nM reported_result=21.9
molecule="NC(=O)c1ccccc1O [Salicylamide]" unit_of_measurement=nM reported_result=25.8
molecule="NC(=O)c1cnccn1 [Pyrazinamide]" unit_of_measurement=nM reported_result=28.4
molecule="Cc1ccc(C(=O)c2ccc(CC(=O)O)n2C)cc1 [Tolmetin sodium, reference compound]" unit_of_measurement=nM reported_result=35.1
molecule="CN1[C@@H]2CC[C@H]1C[C@@H](OC(=O)[C@H](CO)c1ccccc1)C2 [Hyoscyamine]" unit_of_measurement=nM reported_result=14.8
molecule="c1ccc(CC2=NCCN2)cc1 [Tolazoline hydrochloride]" unit_of_measurement=nM reported_result=31.4
molecule="CCOC(=O)[C@H](CCc1ccccc1)N[C@@H](C)C(=O)N1CCC[C@H]1C(=O)O [Enalapril maleate]" unit_of_measurement=nM reported_result=26.3

Origin of measurements: paper PMC2646813
